Here, each record is paired with measured activity, negative = cell killing data.
- experimental details: Drug repurposing screens with cells derived from glioblastoma tumor samples (AID 1345199); also: % is scaled to controls: 0 for no effect and ±100 for the full control effect
- condition details: GBM patient neurospheres viability, ATP luminescence, 48 h; at 45.9 µM (top of the series); tumour line B
Records with an inconclusive call do not appear.
Write the value in % as a bare number.

// below: answered molecules
molecule	activity, negative = cell killing, %
N[C@H](CO)C(=O)O	4.31
O=C1OCCN1/N=C/c1ccc([N+](=O)[O-])o1	4.9
COC1=CC(=O)C[C@@H](C)[C@]12Oc1c(Cl)c(OC)cc(OC)c1C2=O	-17.6
C=CCc1ccc(O)c(OC)c1	-13.4

--- query ---
Please look up its activity, negative = cell killing: CC(=O)O[C@H]1C[C@@H]2CC[C@@H]3[C@H](CC[C@@]4(C)[C@H]3C[C@H]([N+]3(C)CCCCC3)[C@@H]4OC(C)=O)[C@@]2(C)C[C@@H]1[N+]1(C)CCCCC1 7.88

src = PubChem BioAssay (NCATS)
